# system.tested: T1, Cynomolgus PSGL-1(ECD)-hFc1 (cynomolgus macaque)
# T1 construct: also called Cyno PSGL1-Fc; Cyno PSGL-1(ECD)-Fc
# test.method.notes: ELISA, 20 nM mAb on plate cyno PSGL-1(ECD)-Fc
Parameter: A450nm. Scope: all listed entries.

binder	A450nm [A450 nm]
01A11 (antibody, IgG4, V domains shown) VH: EVKLLESGGGLVQPGGSLRLSCATSGFSFSDYWMSWVRQAPGKGLEWVASIKKDGSEKYYVDSVKGRFTISRDNAKNSLYVQMNSLRAEDTAIYYCVVFGAWGPGTLVTVSS VL: DIVMTQTPLSLPVTLGQPASISCRSGRSLVYSDGNTYLNWFQQRPGQSPRRLIYKVSNRDSGVPDRFSGGGSGTDFTLKISRVEAEDVAIYYCMQGTHWPPTFGQGTKLEIK	0.78
01A04 (antibody, IgG4, V domains shown) VH: EVQLVQSGAEVKKPGASVKVSCKASGYTFTSYYIHWVRQAPGQGLEWMGIIRPSGGSTSYAQKFQGRVTMTRDTSTSTVYMELSSLRSEDTAMYYCARVGVGSFDYWGQGTLVTVSS VL: DIQMTQSPSTLSASVGDRVTITCRASQSVSNWLAWYQQKPGKAPKLLIYKASSLESGVPSRFSGSGSGTEFTLTISSLQPDDFATYYCQWFRTFGPGTKVDIK	1.81
09D04 (antibody, IgG4, V domains shown) VH: QVQLQQSGGGLVQPGGSLTLSCVGSGFDFRSYAMSWVRQAPGKGLEWVSGINNSGSKTYYADFVKGRFSVSRDNSKNIVWLRMRSLRAEDTAVYYCARRTFGPPHAWGQGTMVTVSS VL: DVVMTQSPLSLPVTPGEPASISCRSSQSLLHSNGYTYLEWYLHKPGQSPQLLIYLGSNRASGVPDRFSGSGSGTDFTLKISRVEAEDVGVYYCMHSLHIPFTFGPGTKVDIK	1.93
03D07 (antibody, IgG4, V domains shown) VH: EVKLLESGGGLVQPGGSLRLSCAASGFTFSSYALSWVRQAPGKGLEWVSAISGSGGNTYYADSVKGRFTISRDNSKNTLYLQMNSLRAEDTAVYYCAKVVGATNYWGQGTLVTVSS VL: DIVMTQTPLSLPVTLGQPASISCRSSQSLVYSDGHTYLSWFHQRPGQSPRRLIYKVSIRDSGVPDRFSGSGSGTDFTLKISRVEAEDVGVYYCMQRLQIPLTFGGGTKVEIK	0.74
06C04 (antibody, IgG4, V domains shown) VH: EVQLVESGGGLVQPGGSLRLSCAASGFTFSDHYMDWVRQAPGKGLEWVGRSRNKVKSYTTAYAASVEGRITISRDDSKNSLYLEMNSLKTEDTAVYYCVRVRWGGAFDIWGQGTMVTVSS VL: QPVLTQPPSASGSPGQSVTISCTGTSSDVGGYNYVSWYQQHPGKAPKLMIYEVSKRPSGVPDRFSGSKSGNTASLTVSGLQAEDEADYYCSSYAGSNNLRVFGGGTKLTVL	0.55
